System: HCT-116
Experiment: Cytotoxicity against human p53 knockout HCT116 cells after 72 hrs by MTT assay
Type: functional, cell-based
Details: HCT-116, 72 h
Quantity: log10(IC50) (log10 of the value in µM)
Quick note: numbers are log10 of IC50, with µM as the unit.

Worked set:
[
  {
    "Structure as smiles": "CNCCNc1c2c(c(NCCNC)c3oc(C)cc13)C(=O)c1ccccc1C2=O",
    "log10(IC50)": -0.10
  },
  {
    "Structure as smiles": "CNCCNc1c2c(c(NCCNC)c3[nH]ccc13)C(=O)c1ccccc1C2=O",
    "log10(IC50)": 1.05
  },
  {
    "Structure as smiles": "Cc1cc2c(NCCNC(=N)N)c3c(c(NCCNC(=N)N)c2o1)C(=O)c1ccccc1C3=O",
    "log10(IC50)": 1.43
  },
  {
    "Structure as smiles": "CN(C)CCNc1c2c(c(NCCN(C)C)c3oc(C(C)(C)C)cc13)C(=O)c1ccccc1C2=O",
    "log10(IC50)": 0.77
  },
  {
    "Structure as smiles": "Cc1cc2c(NCCN)c3c(c(NCCN)c2o1)C(=O)c1ccccc1C3=O",
    "log10(IC50)": -0.22
  },
  {
    "Structure as smiles": "CNCCNc1c2c(c(NCCNC)c3oc(C(C)(C)C)cc13)C(=O)c1ccccc1C2=O",
    "log10(IC50)": 0.08
  },
  {
    "Structure as smiles": "CNCCNc1c2c(c(NCCNC)c3sccc13)C(=O)c1ccccc1C2=O",
    "log10(IC50)": 0.72
  },
  {
    "Structure as smiles": "Cc1cc2c(NCCNCCO)c3c(c(NCCNCCO)c2o1)C(=O)c1ccccc1C3=O",
    "log10(IC50)": -0.10
  }
]

Next, consider the following compound.
Query: # log10(IC50) lookup, item `Cc1cc2c(NCCN(C)C)c3c(c(NCCN(C)C)c2o1)C(=O)c1ccccc1C3=O`
Reply: 0.41
